test system: Ruminococcus gnavus DSM 108212; experiment: fold change of 2-Phenylethylamine concentration vs plate DMSO controls (fold change (ratio)); higher = more amine produced, active = hit call of the paper (significant change in both replicates, either direction); details: 20 µM; incubation time: 27 h, anaerobic, 37 °C
Counter-ions that a name gives are not always drawn.
MEASURE: fold change of 2-Phenylethylamine concentration

Notebook: pull reported fold change of 2-Phenylethylamine concentration for Ruminococcus gnavus DSM 108212, entry C[N+]1(C)CCCC(OC(=O)C(O)(c2ccccc2)c2ccccc2)C1 (stereo not drawn) [Mepenzolate bromide]
1.02 (inactive)

Give recorded fold change of 2-Phenylethylamine concentration with Ruminococcus gnavus DSM 108212 for the following compound: CN(C)C(=O)Oc1cccc([N+](C)(C)C)c1 [Neostigmine bromide]
1.01 (inactive)

For the record COc1ccccc1N , what value of fold change of 2-Phenylethylamine concentration is listed for Ruminococcus gnavus DSM 108212?
1.01 (inactive)

Please state recorded fold change of 2-Phenylethylamine concentration (tested on Ruminococcus gnavus DSM 108212) of COc1cc(C)c(C(=O)c2c(OC)ccc(Br)c2C)c(OC)c1OC
1 (inactive)

State its fold change of 2-Phenylethylamine concentration on Ruminococcus gnavus DSM 108212: CC(C)N1C(=O)N(c2ccccc2)CS/C1=N\C(C)(C)C
0.961 (inactive)

Request: fold change of 2-Phenylethylamine concentration, test system Ruminococcus gnavus DSM 108212, entry CC(=NC#N)N(C)Cc1ccc(Cl)nc1
1.05 (inactive)

Which measured fold change of 2-Phenylethylamine concentration belongs to CC(C)(C)NCC(O)c1cc(Cl)c(N)c(Cl)c1 (stereo not drawn) [Clenbuterol hydrochloride] , tested on Ruminococcus gnavus DSM 108212?
1.02 (inactive)

API: value(readout=fold change of 2-Phenylethylamine concentration, system=Ruminococcus gnavus DSM 108212) for record CCC(=O)Nc1ccc(Cl)c(Cl)c1
1.13 (inactive)

Find the measured fold change of 2-Phenylethylamine concentration: item CCc1cc(C)cc(CC)c1-c1c(OC(=O)C(C)(C)C)n2n(c1=O)CCOCC2 , target or system Ruminococcus gnavus DSM 108212.
0.985 (inactive)

Give recorded fold change of 2-Phenylethylamine concentration with Ruminococcus gnavus DSM 108212 for the following compound: O=[N+]([O-])c1ccc2ccc3cccc4ccc1c2c34
0.967 (inactive)

Query for Ruminococcus gnavus DSM 108212: what fold change of 2-Phenylethylamine concentration does the record show for C[CH2][Hg][S]c1ccccc1C(=O)[O-].[Na+] ?
0.496 (inactive)

Item COc1ccc(CCN2CCC(Nc3nc4ccccc4n3Cc3ccc(F)cc3)CC2)cc1 with Ruminococcus gnavus DSM 108212 - fold change of 2-Phenylethylamine concentration?
0.796 (inactive)

What fold change of 2-Phenylethylamine concentration appears in the records for this compound with Ruminococcus gnavus DSM 108212? CN[C@@H]1[C@@H](O)[C@@H](O[C@@H]2[C@@H](O)[C@H](O[C@H]3O[C@H](CN)CC[C@H]3N)[C@@H](N)C[C@H]2N)OC[C@]1(C)O.CN[C@@H]1[C@@H](O)[C@@H](O[C@@H]2[C@@H](O)[C@H](O[C@H]3O[C@H]([C@@H](C)N)CC[C@H]3N)[C@@H](N)C[C@H]2N)OC[C@]1(C)O.CN[C@@H]1[C@@H](O)[C@@H](O[C@@H]2[C@@H](O)[C@H](O[C@H]3O[C@H]([C@@H](C)NC)CC[C@H]3N)[C@@H](N)C[C@H]2N)OC[C@]1(C)O [Gentamicine sulfate]
1.16 (inactive)
